Field: Geometric Mean MIC values, P. aeruginosa Δefflux. Provide a value for each of the molecules that follow.
# Tested on: P. aeruginosa Δefflux (MexAB-OprM, MexCD-OprJ, MexEF-OprN knocked out)
# Procedure Summary: MIC broth microdilution, P. aeruginosa Δefflux strain
# Format: cell-based
# Condition Info: Table 1, MexEF-OprN efflux pumps knocked out
# Description: Minimum inhibitory concentrations for the example compounds herein are determined by the broth microdilution method in accordance with the Clinical and Laboratory Standards Institute (CLSI) guidelines. In brief, organism suspensions are adjusted to a 0.5 McFarland standard to yield a final inoculum between 3×10^5 and 7×10^5 colony-forming units (CFU)/mL. […] Following incubation, the lowest concentration of the compound that prevents visible growth (OD 600 nm<0.05) is recorded as the MIC. […]

Recorded results for 3 molecules are shown here.
## Task I would be grateful if you could share the reported Geometric Mean MIC values, P. aeruginosa Δefflux for CC(N)C1CCC(N)C(OC2C(N)CC(N)C(O)C2OC2OC(CO)C(OC3OC(CN)C(O)C(O)C3N)C2O)O1 (stereo not shown) [drawing 849] .
## Result 0.5 µg/mL

## Task Name the recorded Geometric Mean MIC values, P. aeruginosa Δefflux for NCC1CCC(N)C(OC2C(N)CC(N)C(O)C2OC2OC(CO)C(OC3OC(CN)C(O)C(O)C3N)C2O)O1 (stereo not shown) [drawing 848] .
## Result 0.5 µg/mL

## Task So what's the measured Geometric Mean MIC values, P. aeruginosa Δefflux for this one? NCC1OC(OC2C(CO)OC(OC3C(O)C(N)CC(N)C3OC3OC(CN)C(O)C(F)(F)C3N)C2O)C(N)C(O)C1O (stereo not shown) [drawing 854]
## Result 1 µg/mL

Kindly consider the entry below.
## Task Value lookup for Geometric Mean MIC values, P. aeruginosa Δefflux; key = CCC(N)C1CCC(N)C(OC2C(N)CC(N)C(O)C2OC2OC(CO)C(OC3OC(CN)C(O)C(O)C3N)C2O)O1 (stereo not shown) [drawing 851]
## Result 0.5 µg/mL
